- System: Northern house mosquitoes (Culex pipiens)
- Experiment Description: Long-term spatial repellency, static air repellency chamber, filter papers air-dried 5 hours
- Assay type: in vivo
- Run Parameters: Culex pipiens, 0.25 h; 1 mL of 0.5% solution in acetone, air-dried 5 hours; 15 min; read-out: Long-term Percentage repellency 15 min
Threshold rule: pest or weed control at 0.5 % greater than or equal to 20% is Yes; below that, No.

Known results for molecules:
>>> df
                                   molecule  label_value
0  CC(C)=CCCC(C)CCOC(=O)c1ccco1 (stereo not shown) [Compound 2186, citronellyl 2-furoate]          Yes
1  CC(C)=CCCC(C)CCOC(=O)C1CC1 (stereo not shown) [Compound 1035A, citronellyl cyclopropanecarboxylate]          Yes
2  CC(C)=CCC/C(C)=C/C(=O)OCC1CC1 [Compound 2020, cyclopropylmethyl geranate]          Yes
3  Cc1ccc(C(C)C)c(OC(=O)C2CCCCC2)c1 [Compound 2085, thymyl cyclohexanecarboxylate]           No
4  CC(C)=CCCC(C)CCOC(=O)C1CC(=O)C1 (stereo not shown) [Compound 3067, citronellyl 3-oxocyclobutanecarboxylate]           No
5  CC1CCC(C(C)C)C(OC(=O)C2CC2)C1 (stereo not shown) [Compound 1033B, menthyl cyclopropanecarboxylate]          Yes
6  C=C(C)C1CC=C(COC(=O)C2CCC2)CC1 (stereo not shown) [Compound 2033, perillyl cyclobutanecarboxylate]          Yes
7  O=C(OC/C=C/c1ccccc1)C1CCC1 [Compound 2039, cinnamyl cyclobutanecarboxylate]          Yes
8  CC(C)=CCCC(C)CCOC(=O)C1(C)CCC1 (stereo not shown) [Compound 2106]           No
9  CC(C)=CCCC(C)CCOC(=O)CC(C)C (stereo not shown) [Compound 1034B, citronellyl isovalerate]          Yes

[ask] Does pest or weed control at 0.5 % meet or surpass 20% for CC1CCC(C(C)(C)O)C(O)C1 (stereo not shown) [p-menthane-3,8-diol, reference compound] ?
[reply] No

[ask] Does pest or weed control at 0.5 % meet or surpass 20% for Cc1ccc(C(C)C)c(OC(=O)C(C)(C)F)c1 [Compound 1121A, thymyl 2-fluoroisobutyrate] ?
[reply] Yes

[ask] Does pest or weed control at 0.5 % meet or surpass 20% for CC(C)=CCCC(C)CCOC(=O)C1CC(C)C1 (stereo not shown) [Compound 3068] ?
[reply] Yes

[ask] Does pest or weed control at 0.5 % meet or surpass 20% for CCN(CC)C(=O)c1cccc(C)c1 [N,N-diethyl-meta-toluamide (DEET), N,N-diethyl-meta-toluamide, reference compound] ?
[reply] Yes

[ask] Does pest or weed control at 0.5 % meet or surpass 20% for CC(C)=CCCC(C)CC(=O)OCC(C)O (stereo not shown) [Compound 2144, 2-hydroxypropyl citronellate] ?
[reply] No

[ask] Does pest or weed control at 0.5 % meet or surpass 20% for CC(C)=CCC/C(C)=C\COC(=O)C1CC1 [Compound 2023B, neryl cyclopropanecarboxylate] ?
[reply] No

---

- Test system: Northern house mosquitoes (Culex pipiens)
- Experiment Description: Short-term spatial repellency, static air repellency chamber
- Type: in vivo
- Run Parameters: Culex pipiens, 1.5 h; filter paper, 1 mL of 0.5% solution in acetone, air-dried 15 min; 90 min; read-out: Short-term Percentage repellency 90 min
Where a name gives a salt, the structure may show the parent alone.
I'd be grateful if you could share measured pest or weed control at 0.5 % for these entries.
Numbers only, in %.

Illustrative cases are given below, each with its answer.
                                   compound                       endpoint  measurement_units  recorded_measurement
0  CC(C)=CCCC(C)CCOC(=O)C1CC(=O)C1 (stereo not drawn) [Compound 3067, citronellyl 3-oxocyclobutanecarboxylate]  pest or weed control at 0.5 %                  %                    60
1  Cc1cc(OC(=O)C2CC2)c(C(C)C)cc1Br [Compound 1075B, 4-bromothymyl cyclopropanecarboxylate]  pest or weed control at 0.5 %                  %                  32.5
2  C=CC(C)(CCC=C(C)C)OC(=O)CC(C)C (stereo not drawn) [Compound 2152, linalyl isovalerate]  pest or weed control at 0.5 %                  %                  82.5
3  Cc1ccc(C(C)C)c(OC=O)c1 [Compound 1107A, thymyl formate]  pest or weed control at 0.5 %                  %                    80
4  Cc1cc(OC(=O)C(C)C)c(C(C)C)cc1Cl [Compound 1144B, chlorothymyl isobutyrate]  pest or weed control at 0.5 %                  %                  77.5

[ask] Need pest or weed control at 0.5 %, item CC(C)=CCCC(C)CCOC(=O)c1cccs1 (stereo not drawn) [Compound 2180, Citronellyl thiophene-2-carboxylate]
[reply] 37.5
